molecular target: full-length human KDR (VEGFR2) (Homo sapiens (Human), UniProt P35968); assay: Inhibition of enzymatic KDR kinase activity (LANCE Ulight-JAK1 peptide, Eu-antibody, 665 nm emission); type: biochemical; details: ATP at Km (15 uM)
Sequence (P35968 20-1356): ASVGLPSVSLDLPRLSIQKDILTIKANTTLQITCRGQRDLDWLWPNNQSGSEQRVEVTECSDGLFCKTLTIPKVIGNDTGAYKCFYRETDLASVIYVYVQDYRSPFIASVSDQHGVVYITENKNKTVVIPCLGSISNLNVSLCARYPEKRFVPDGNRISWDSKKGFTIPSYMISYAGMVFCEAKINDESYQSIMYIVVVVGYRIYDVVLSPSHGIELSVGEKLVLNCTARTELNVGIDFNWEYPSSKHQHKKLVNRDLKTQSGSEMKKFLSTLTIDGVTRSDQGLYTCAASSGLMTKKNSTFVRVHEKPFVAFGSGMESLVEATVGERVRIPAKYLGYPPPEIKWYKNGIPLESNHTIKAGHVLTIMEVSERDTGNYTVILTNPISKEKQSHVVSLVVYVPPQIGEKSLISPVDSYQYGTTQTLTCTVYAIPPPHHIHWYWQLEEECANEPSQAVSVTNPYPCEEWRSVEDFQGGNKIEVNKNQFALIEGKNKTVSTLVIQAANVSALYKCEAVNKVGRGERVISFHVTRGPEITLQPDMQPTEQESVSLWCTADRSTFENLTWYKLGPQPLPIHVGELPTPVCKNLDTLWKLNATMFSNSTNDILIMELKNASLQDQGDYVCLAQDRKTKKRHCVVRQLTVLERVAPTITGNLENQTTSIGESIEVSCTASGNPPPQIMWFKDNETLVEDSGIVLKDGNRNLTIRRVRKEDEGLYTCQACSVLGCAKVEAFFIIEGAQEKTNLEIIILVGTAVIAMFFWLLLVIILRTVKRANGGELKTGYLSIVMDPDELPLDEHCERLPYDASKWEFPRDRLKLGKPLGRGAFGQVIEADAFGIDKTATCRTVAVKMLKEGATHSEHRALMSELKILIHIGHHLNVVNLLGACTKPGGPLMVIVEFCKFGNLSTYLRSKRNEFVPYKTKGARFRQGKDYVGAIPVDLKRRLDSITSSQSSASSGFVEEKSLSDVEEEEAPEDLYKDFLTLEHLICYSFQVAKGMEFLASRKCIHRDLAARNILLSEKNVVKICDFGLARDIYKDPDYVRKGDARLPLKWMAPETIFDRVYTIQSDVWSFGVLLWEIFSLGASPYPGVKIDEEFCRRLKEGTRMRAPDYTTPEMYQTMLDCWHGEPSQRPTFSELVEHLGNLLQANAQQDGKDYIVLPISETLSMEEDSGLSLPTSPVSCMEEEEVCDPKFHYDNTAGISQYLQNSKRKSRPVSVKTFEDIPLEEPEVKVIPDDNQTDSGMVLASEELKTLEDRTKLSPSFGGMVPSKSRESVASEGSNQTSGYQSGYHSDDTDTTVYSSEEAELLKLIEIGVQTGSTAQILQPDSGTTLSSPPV
measure name: IC50 (nM)
// return numeric value only (unit: nM, not printed)

Give the reported IC50 for this compound. Cc1nn(-c2ccnc(Nc3ccc4c(c3)c(Cl)c(C)n4C)n2)cc1CN1CC(O)C1 192

* * *

biological target: full-length human SYK (Homo sapiens (Human)); assay: Inhibition of enzymatic SYK kinase activity (LANCE Ulight-TK peptide, Eu-antibody, 665 nm emission); format: biochemical; conditions: ATP at Km (15 uM)
measure name: IC50 (nM)
// return numeric value only (unit: nM, not printed)

Give the reported IC50 for this compound. Cc1cn(-c2ccnc(Nc3ccc4c(ccn4C)c3)n2)cc1CN1CC(O)C1 190
